B1: CPEB3 Ribozyme (parent)
chain: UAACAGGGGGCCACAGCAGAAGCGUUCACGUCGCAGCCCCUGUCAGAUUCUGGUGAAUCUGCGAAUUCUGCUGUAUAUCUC

# Variants of: B1
# experimentDescription: self-cleavage, relative activity (ratio to wild type); higher = more cleavage; in vitro, sequencing
observedProperty: self-cleavage

A2G G10U
0.36
U26G A35G
0.8
A3U G61A
1.01
U25A U54G
0.2
U48A A57G
0.47
A20C A35G
0.88
A5U U51G
1.16
G55A U60C
0.25
A45C U67C
0.15
G52C U69C
0.86
U1A A5U
0.97
U51C U80A
1.13
C29A U48A
0.09
A5C A21U
0.36
A2G U49A
0.42
A28G U78C
0.61
A2C A35G
1.24
G16A U78A
0.52
A18U A35C
0.34
U26C A64U
0.26
C34A A64G
0.14
G9C U41C
0.15

// provenance: the RNAGym collection of RNA variant scans (doi:10.1093/nar/gkz1192)
